Values compiled from the supplement of paper PMC10567573.

B1: FADS1 (parent)
chain: LNFQIEHHLFPTMPRHNYHKVAPL

Variants of: B1
Assay: protein stability index of a GFP-peptide fusion (GPS, HEK-293T) (PSI 1-6); higher = more stable;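 note: lentivirally expressed fusions sorted by FACS into six bins by GFP to DsRed ratio, PSI derived from sequencing read proportions per bin multiplied by bin number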
Conditions: c terminus: a fixed tail appended
Kindly state protein stability index for each of the entries shown.
// return a plain number; no unit text

[ask] What value of protein stability index has been reported for the following variant? N17Y
[reply] 2.39

[ask] // returns reported protein stability index for input L24Q
[reply] 2.02

[ask] Fill in: protein stability index of N2V is ___
[reply] 2.5

[ask] Sample Y18E — what was its protein stability index?
[reply] 2.65

[ask] Look up protein stability index: M13Q
[reply] 1.15

[ask] Which measured protein stability index value corresponds to R15Y ?
[reply] 3.31

[ask] Reported protein stability index for I5L : what is it?
[reply] 2.35

[ask] Give the measured protein stability index of P14T .
[reply] 1.9

[ask] Fill in: protein stability index of L9G is ___
[reply] 2.83

[ask] Consider the variant F3Y and give its measured protein stability index.
[reply] 1.37

[ask] Endpoint output: protein stability index of E6G . Value?
[reply] 1.77
